molecular target: Substance-P receptor (Homo sapiens); experiment: Displacement of [125I]-labeled substance P from the cloned human Tachykinin receptor 1 expressed in CHO cells
Sequence (P25103 whole entry): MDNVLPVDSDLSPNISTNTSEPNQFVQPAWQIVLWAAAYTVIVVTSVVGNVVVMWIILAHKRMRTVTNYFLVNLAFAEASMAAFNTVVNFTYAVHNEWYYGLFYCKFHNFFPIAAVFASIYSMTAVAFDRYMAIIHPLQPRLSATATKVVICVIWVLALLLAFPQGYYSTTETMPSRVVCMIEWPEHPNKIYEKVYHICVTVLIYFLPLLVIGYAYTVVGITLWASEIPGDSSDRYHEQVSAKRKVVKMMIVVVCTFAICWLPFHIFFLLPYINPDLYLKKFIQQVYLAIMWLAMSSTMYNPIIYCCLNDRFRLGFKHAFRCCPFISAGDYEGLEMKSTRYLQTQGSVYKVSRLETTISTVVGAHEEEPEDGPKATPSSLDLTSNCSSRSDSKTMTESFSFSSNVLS
QUANTITY_MEASURED: IC50 (nM)

Solved entries (count: 5):
COMPOUND	IC50 / nM
COc1ccc(OC(F)(F)F)cc1[C@H]1COC2(CCCN(Cc3nc[nH]n3)C2c2ccccc2)C1 (stereo not given in full)	0.89
COc1ccc(OC(F)(F)F)cc1[C@H]1COC2(CCCN[C@H]2c2ccccc2)C1 (stereo not given in full)	0.3
c1ccc([C@H]2COC3(CCCN[C@H]3c3ccccc3)C2)cc1 (stereo not given in full)	133
COc1ccc(OC(F)(F)F)cc1C1=CC2(CCCNC2c2ccccc2)OC1 (stereo not given)	0.35
COc1ccc(-n2nnnc2C(F)(F)F)cc1[C@H]1COC2(CCCN(Cc3c[nH]cn3)C2c2ccccc2)C1 (stereo not given in full)	0.11

P = COc1ccccc1[C@H]1COC2(CCCNC2c2ccccc2)C1 (stereo not given in full)
Q = COc1ccc(-n2nnnc2C(F)(F)F)cc1[C@H]1COC2(CCCNC2c2ccccc2)C1 (stereo not given in full)
Compare reported IC50 values for P and Q . Which is lower? Identify your pick by its label.
Q

P = COc1ccc(-n2nnnc2C(F)(F)F)cc1[C@H]1COC2(CCCN(Cc3n[nH]c(O)n3)C2c2ccccc2)C1 (stereo not given in full)
Q = COc1ccccc1C1=CC2(CCCNC2c2ccccc2)OC1 (stereo not given)
Which one would you say has the larger IC50 value: P , or Q ? Identify your pick by its label.
Q
(Q: 49 nM, P: 0.1 nM)

Every entry's value here was drawn from ChEMBL document CHEMBL1135347.
